# run-description: chemical genetic growth profiling, strain panel (AID 1159580);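 also: tested at 20 µM; growth read once vehicle control cultures reached saturation at 30 °C; lower values mean less growth of the strain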
# measurement-context: S. cerevisiae deletion strains, growth OD, locus YLR370C, strain arc18
Screen size: about 5,500 compounds; about 2,000 (36%) were called active. Roughly 18% stayed inconclusive and do not appear here. Rule as the data show it: active = normalized growth mostly below about 0.91 (no sharp cut-off); inconclusive = no clear call, values can overlap the other calls; inactive = mostly above about 0.92. This is one part of the list. *1 amine or outer side, *2 acyl side, *3 side chain or, on linkers, in order; H or OH if unused. Where a SMILES comes first, the peptide text is derived from it. Bridges are numbered along the chain shown (N, C = ends). [ ]: non-standard residue; d: D form. The star is where a group is joined. ξ: configuration not given here. ΔAla(E,3-NHCONH2) = NC(=O)N/C=C(/N)C(=O)O; X2 = NC1=NCCC(C(N[*:1])C(=O)[*:2])N1; ξβ3hOrn = NCCCC(N)CC(=O)*; Dap = NC[CH](N)C(=O)O
Answer with one of the outcomes t for active, f for inactive

- COc1ccc2c(=O)ccoc2c1: f
- O=C(O)[C@H](O)[C@@](O)(Cc1ccc(O)cc1)C(=O)O: f
- CC1=CC2C(C(C)C)CCC(C)(O)C2CC1 (stereo not drawn): f
- Cc1cc(C(C)(C)C)cc(C)c1CC1=NCCN1: f
- OC(c1cc(C(F)(F)F)nc2c(C(F)(F)F)cccc12)C1CCCCN1 (stereo not drawn): f
- CC(=O)[C@@]1(O)CCC2C3CCC4=CC(=O)CC[C@]4(C)C3CC[C@@]21C (stereo partly drawn): f
- NCCCC(N)CC(=O)NCC1NC(=O)C(CO)NC(=O)C(N)CNC(=O)C(C2CCN=C(N)N2)NC(=O)/C(=C\NC(N)=O)NC1=O (stereo not drawn) (H-[Dap]S[Dap](ξβ3hOrn)[ΔAla(E,3-NHCONH2)][X2]; lactam 1-C; configuration not given here): f
- COc1c2ccoc2cc2oc(C)cc(=O)c12: f

Ask | Recorded call for Cc1cc(C(C)(C)C)c(O)c(C)c1CC1=NCCN1 ?
Reply | f

Ask | Field: outcome | Entry: CC(=O)Oc1cccc2c1C(=O)c1c(OC(C)=O)cc(C(=O)O)cc1C2=O
Reply | f

Ask | Returns: the outcome recorded for Cc1ccc(N(CC2=NCCN2)c2cccc(O)c2)cc1 in this assay.
Reply | f

Ask | # lookup: test call for COc1cc(-c2coc3cc(O[C@@H]4O[C@H](CO)[C@@H](O)[C@H](O)[C@H]4O)c(OC)c(O)c3c2=O)cc(O)c1OC
Reply | f

Ask | // outcome(item) with item = CCN(CC)CCNC(=O)c1cc(Cl)c(N)cc1OC
Reply | f

Ask | Given O=C(CCc1ccc(O)cc1)c1c(O)cc(O)cc1O[C@@H]1O[C@H](CO)[C@@H](O)[C@H](O)[C@H]1O , state the outcome it received in this test.
Reply | f

Ask | Recorded test outcome, item CN1CCN(CCCN2c3ccccc3Sc3ccc(C(F)(F)F)cc32)CC1
Reply | t

Ask | Which outcome was assigned to C#CC1(O)CCC2C3CCC4=CC(=O)CCC4(C)C3CCC21C (stereo not drawn) in this test?
Reply | f

Ask | Recorded test outcome, item CC[C@H]1CN2CCc3cc(OC)c(OC)cc3C2C[C@@H]1CC1NCCc2cc(OC)c(OC)cc21 (stereo partly drawn)
Reply | f

Ask | Status in this test for CN1C(=O)CCS(=O)(=O)C1c1ccc(Cl)cc1 (stereo not drawn) ?
Reply | f
